- targetUnderTest: EGFR (C797S L858R) (Homo sapiens, UniProt P00533, C797S/L858R)
- Construct: purchased signalchem
- Sequence (P00533 25-1210 C797S/L858R): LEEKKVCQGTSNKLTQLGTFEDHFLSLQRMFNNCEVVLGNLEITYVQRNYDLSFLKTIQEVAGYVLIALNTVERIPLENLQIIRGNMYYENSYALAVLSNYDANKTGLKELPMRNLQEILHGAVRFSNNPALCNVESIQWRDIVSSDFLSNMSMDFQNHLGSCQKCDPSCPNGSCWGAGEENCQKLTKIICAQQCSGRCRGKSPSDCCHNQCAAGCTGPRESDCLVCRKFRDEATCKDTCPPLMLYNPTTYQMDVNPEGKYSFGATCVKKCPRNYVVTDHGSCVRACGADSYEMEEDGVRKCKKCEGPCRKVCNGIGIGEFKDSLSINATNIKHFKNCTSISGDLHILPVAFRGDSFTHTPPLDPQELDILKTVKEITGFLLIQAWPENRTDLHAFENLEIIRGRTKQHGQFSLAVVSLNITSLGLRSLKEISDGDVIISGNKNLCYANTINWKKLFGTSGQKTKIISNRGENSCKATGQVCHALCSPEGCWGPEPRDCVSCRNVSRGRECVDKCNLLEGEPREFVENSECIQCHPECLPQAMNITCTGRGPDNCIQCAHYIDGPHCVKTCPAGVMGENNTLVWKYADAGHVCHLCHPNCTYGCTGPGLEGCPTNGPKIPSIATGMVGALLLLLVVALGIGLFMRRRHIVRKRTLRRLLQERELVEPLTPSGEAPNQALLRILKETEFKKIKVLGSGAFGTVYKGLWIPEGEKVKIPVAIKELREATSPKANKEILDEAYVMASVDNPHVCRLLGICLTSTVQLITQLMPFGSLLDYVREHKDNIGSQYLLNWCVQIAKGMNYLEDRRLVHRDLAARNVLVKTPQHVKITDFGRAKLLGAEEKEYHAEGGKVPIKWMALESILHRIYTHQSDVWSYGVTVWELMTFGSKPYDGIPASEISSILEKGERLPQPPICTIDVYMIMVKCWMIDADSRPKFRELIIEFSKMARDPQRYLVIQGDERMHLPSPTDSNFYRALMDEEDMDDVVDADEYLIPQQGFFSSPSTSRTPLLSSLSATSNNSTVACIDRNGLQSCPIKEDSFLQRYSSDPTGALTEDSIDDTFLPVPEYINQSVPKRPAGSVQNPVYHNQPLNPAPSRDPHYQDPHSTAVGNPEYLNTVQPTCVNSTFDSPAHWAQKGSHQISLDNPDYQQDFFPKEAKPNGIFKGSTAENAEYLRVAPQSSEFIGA
- procedureText: Inhibition of EGFR (C797S L858R) biochemical enzymatic activity (HTRF)
- measurementContext: EGFR L858-C797S, 1 mM ATP, 1 h, room temperature, read-out: IC50 (nM) @L858-C797S
propertyName: log10 IC50 (log10 of the value in nM)

{"compound": "Cn1ncc2c1OCCN1CC3CCC(CC3)(C1)n1c(nc3cc(F)ccc31)NC(=O)c1cc-2c(=O)n(C)c1 [Example A116]", "log10 IC50": 3.57}
{"compound": "CN(C)CCCN(C)c1ccc2nc3n(c2c1)C12CCC(CN(CCOc4c(cnn4C)-c4cc(cn(C)c4=O)C(=O)N3)C1)C2 (single isomer, unassigned) [Example A89B]", "log10 IC50": 1.04}
{"compound": "Cn1ncc2c1OCCN1CC(CCC1(C)C)n1c(nc3ccc(N4CCOCC4)cc31)NC(=O)c1cc-2c(=O)n(C)c1 (stereo not drawn) [Example A12]", "log10 IC50": 2.59}
{"compound": "CN1CCN(C2CCN(c3ccc4nc5n(c4c3)C34CCC(CN(CCOc6c(cnn6C)-c6cc(cn(C)c6=O)C(=O)N5)C3)C4)C2)CC1 (single isomer, unassigned) [Example A80B1]", "log10 IC50": 0.94}
{"compound": "Cn1ncc2c1OCCN(CC(F)(F)F)CCn1c(nc3ccccc31)NC(=O)c1cc-2c(=O)n(C)c1 [Example A1]", "log10 IC50": 2.08}
{"compound": "CN1CCC12CCN(c1ccc3nc4n(c3c1)C13CCC(CC1)CN(CCOc1c(cnn1C)-c1cc(cn(C)c1=O)C(=O)N4)C3)CC2 [Example A122]", "log10 IC50": 1.40}
